Assay: Pharmacokinetics of LN002 in rat plasma after single intravenous injection or oral gavage
Assay type: in vivo, Sprague–Dawley (SD) rats
Conditions: both sexes, Sprague-Dawley, rat, iv; plasma, i.v. 1 mg/kg, rats, n = 6, mean ± SD; read-out: Vd
assay.readout: Vd (L/kg)
Express the result in L/kg but write the number alone.

Vd recorded for this molecule, N#C/C(=C\c1c[nH]nc1-c1ccccc1)c1nn(-c2ccccc2)c(N)c1C#N , is 1.69

###

Assay: Pharmacokinetics of LN002 in rat plasma after single intravenous injection or oral gavage
Assay type: in vivo, Sprague–Dawley (SD) rats
Conditions: both sexes, Sprague-Dawley, rat, plasma, po, 400 mg/kg, oral 400 mg/kg, rats; read-out: F (oral bioavailability)
Experimental: A total of 24 SD rats, half for each sex, were randomly distributed into four groups and used in the plasma PK study. Heparin sodium was used to prevent blood clotting. Groups 1, 2, and 3 were single-dose oral administration groups, and the administered doses were 100, 200, and 400 mg/kg, respectively. […] The analytes were detected using a UV detector at 333 nm. […]
assay.readout: bioavailability (%)
Express the result in % but write the number alone.

bioavailability recorded for this compound, N#C/C(=C\c1c[nH]nc1-c1ccccc1)c1nn(-c2ccccc2)c(N)c1C#N , is 0.27

FYI, the data here is from paper PMC11325084.
